Origin of the recorded values: the supplement of paper PMC9103864

- Test system: BMSC (primary human bone marrow mesenchymal stromal cells)
- PROTOCOL NOTES: absolute EC50 for viability; higher = less sensitive
Kindly supply the reported absolute EC50 for viability values for the records listed here.

Supply absolute EC50 for viability measured with BMSC (primary human bone marrow mesenchymal stromal cells) for CCCCOc1nc(N)c2c(n1)N(Cc1cccc(CN3CCCC3)c1)CC(=O)N2 . > 10000 nM

Supply absolute EC50 for viability measured with BMSC (primary human bone marrow mesenchymal stromal cells) for NC(=O)c1cccc2cn(-c3ccc([C@@H]4CCCNC4)cc3)nc12 . > 10000 nM

Supply absolute EC50 for viability measured with BMSC (primary human bone marrow mesenchymal stromal cells) for NCC(=O)Nc1ccc(-n2nc(C(F)(F)F)cc2-c2ccc3c(ccc4ccccc43)c2)cc1 . > 25000 nM

Supply absolute EC50 for viability measured with BMSC (primary human bone marrow mesenchymal stromal cells) for Nc1ccn([C@@H]2O[C@H](CO)[C@@H](O)C2(F)F)c(=O)n1 . > 1000 nM

Supply absolute EC50 for viability measured with BMSC (primary human bone marrow mesenchymal stromal cells) for C[C@H]1C[C@@H]2[C@H]([C@@H](O)C[C@@]3(C)[C@H]2CC[C@]3(O)C(=O)CO)[C@@]2(C)C=CC(=O)C=C12 . > 10000 nM

Supply absolute EC50 for viability measured with BMSC (primary human bone marrow mesenchymal stromal cells) for COc1cc2c(Nc3ccc(Cl)c(Cl)c3F)ncnc2cc1OC[C@@H]1C[C@@H]2CN(C)C[C@@H]2C1 . > 1000 nM

Supply absolute EC50 for viability measured with BMSC (primary human bone marrow mesenchymal stromal cells) for Nc1nc(Cl)nc2c1ncn2[C@H]1C[C@H](O)[C@@H](CO)O1 . > 1000 nM

Supply absolute EC50 for viability measured with BMSC (primary human bone marrow mesenchymal stromal cells) for CCc1c2c(nc3ccc(O)cc13)-c1cc3c(c(=O)n1C2)COC(=O)[C@]3(O)CC . 1520 nM
